Biological target: μ-opioid receptors (Homo sapiens (Human))
Assay: μ-opioid receptor [35S]GTPγS functional assay, U-2 OS cells
Assay type: biochemical
Conditions: μ GTP, relative to DAMGO, read-out: Activity Response μ Emax (%)

smiles_string | Emax [%]
CC(C)C[C@H]1C[C@@]2(O)[C@H]3Cc4ccc(O)cc4[C@@]2(CCN3CC2CC2)CC1=O | 2
CC[C@H](C)C(=O)N[C@H]1C[C@@]2(O)[C@H]3Cc4ccc(O)cc4[C@@]2(CCN3CC2CC2)CC1=O | 6
O=C(N[C@H]1C[C@@]2(O)[C@H]3Cc4ccc(O)cc4[C@@]2(CCN3CC2CC2)CC1=O)C1CC1 | 6.33

###

Target: κ opioid receptor (Homo sapiens (Human), UniProt P41145)
Assay: κ-opioid receptor [35S]GTPγS functional assay, HEK-293 cells
Type: biochemical
Conditions: κ GTP, relative to U69,593, read-out: Activity Response κ Emax (%)
measured_property: Emax

smiles_string | study_target | observed
COc1ccc2c(c1)[C@]13CCN(CC4CC4)[C@H](C2)[C@]1(O)C[C@H](CCOCc1ccccc1)C(=O)C3 | κ opioid receptor (Homo sapiens (Human), UniProt P41145) | 70.3%
CC(C)[C@H]1C[C@H]2[C@H]3Cc4ccc(O)cc4[C@@]2(CCN3CC2CC2)CC1=O | κ opioid receptor (Homo sapiens (Human), UniProt P41145) | 34%
CC(C)[C@@H]1C[C@H]2[C@H]3Cc4ccc(O)cc4[C@@]2(CCN3CC2CC2)CC1=O | κ opioid receptor (Homo sapiens (Human), UniProt P41145) | 61%
O=C(O)C[C@H]1C[C@@]2(O)[C@H]3Cc4ccc(O)cc4[C@@]2(CCN3CC2CC2)CC1=O | κ opioid receptor (Homo sapiens (Human), UniProt P41145) | 40.8%
O=C1C[C@]23CCN(CC4CC4)[C@H](Cc4ccc(O)cc42)[C@]3(O)C[C@@H]1CCO | κ opioid receptor (Homo sapiens (Human), UniProt P41145) | 34.3%
C[C@H](NC(=O)C[C@H]1C[C@@]2(O)[C@H]3Cc4ccc(O)cc4[C@@]2(CCN3CC2CC2)CC1=O)C(=O)O | κ opioid receptor (Homo sapiens (Human), UniProt P41145) | 36%
CC(C)C[C@H](NC(=O)C[C@H]1C[C@@]2(O)[C@H]3Cc4ccc(O)cc4[C@@]2(CCN3CC2CC2)CC1=O)C(=O)O | κ opioid receptor (Homo sapiens (Human), UniProt P41145) | 41.3%
CCOC(=O)C[C@H]1C[C@@]2(O)[C@H]3Cc4ccc(OC)cc4[C@@]2(CCN3CC2CC2)CC1=O | κ opioid receptor (Homo sapiens (Human), UniProt P41145) | 72%
COc1ccc2c(c1)[C@]13CCN(CC4CC4)[C@H](C2)[C@]1(O)C[C@H](CC(=O)O)C(=O)C3 | κ opioid receptor (Homo sapiens (Human), UniProt P41145) | 66.7%
COc1ccc2c(c1)[C@]13CCN(CC4CC4)[C@H](C2)[C@@H]1C[C@@H](C(C)C)C(=O)C3 | κ opioid receptor (Homo sapiens (Human), UniProt P41145) | 69.3%
CC(C)CC[C@H]1C[C@@]2(O)[C@H]3Cc4ccc(O)cc4[C@@]2(CCN3CC2CC2)CC1=O | κ opioid receptor (Homo sapiens (Human), UniProt P41145) | 33%

Hello, the source for this data is patent US9388162B2, in case you need it.
